Molecular target: Human thrombin (Homo sapiens (Human))
Assay: Thrombin protease activity inhibition assay (chromogenic substrate S-2238)
Assay type: biochemical
Conditions: 3 nM thrombin, 125 μM S-2238, 10 min pre-incubation, RT
ASSAY_ENDPOINT: IC50

Consider the following illustrative entries.
SMILES_REPRESENTATION	SUBJECT_OF_TEST	IC50
O=C(c1ccoc1)n1nc(-c2cccn(Cc3ccc4ccccc4c3)c2=O)cc1NCc1ccc(Cl)s1	Human thrombin (Homo sapiens (Human))	< 100 nM
COCCn1cccc(-c2cc(NCc3ccc(Cl)s3)n[nH]2)c1=O	Human thrombin (Homo sapiens (Human))	10000 to 100000 nM
COc1ccccc1C(=O)n1nc(-c2cccn(Cc3ccc4ccccc4c3)c2=O)cc1NCc1ccc(Cl)s1	Human thrombin (Homo sapiens (Human))	< 100 nM
O=C(c1ccco1)n1nc(-c2cccn(Cc3ccncc3)c2=O)cc1NCc1ccc(Cl)s1	Human thrombin (Homo sapiens (Human))	< 100 nM
O=C(c1ccoc1)n1nc(-c2cccn(Cc3cccnc3)c2=O)cc1NCc1ccc(Cl)s1	Human thrombin (Homo sapiens (Human))	< 100 nM

Given O=c1c(-c2cc(NCc3ccc(Cl)s3)n[nH]2)cccn1Cc1cccnc1 , state its recorded IC50.
1000 to 10000 nM

Given COCCn1cccc(-c2cc(NCc3ccc(Cl)s3)n(C(=O)c3ccccc3OC)n2)c1=O , state its recorded IC50.
< 100 nM

Given CC(C)(CO)C(=O)n1nc(-c2cccn(Cc3ccco3)c2=O)cc1NCc1ccc(Cl)s1 , state its recorded IC50.
< 100 nM

Given O=C(c1ccccc1)n1nc(-c2cccn(Cc3ncccn3)c2=O)cc1NCc1ccc(Cl)s1 , state its recorded IC50.
< 100 nM

----------
Experiment: Pharmacokinetics in mice (i.v. and p.o.)
Type: in vivo, male CD-1 mice
Details: male, CD-1, mouse, in vivo, po, 5 mg/kg
ASSAY_ENDPOINT: bioavailability (%)

Consider the following illustrative entries.
SMILES_REPRESENTATION	RECORDED_NUMBER
O=C(c1ccoc1)n1nc(-c2cccn(Cc3ccccn3)c2=O)cc1NCc1ccc(Cl)s1	9
Cn1cccc(-c2cc(NCc3ccc(Cl)s3)n(C(=O)c3ccoc3)n2)c1=O	10

A. O=C(c1ccoc1)n1nc(-c2cccn(Cc3ccco3)c2=O)cc1NCc1ccc(Cl)s1
B. O=C(c1ccoc1)n1nc(-c2ccc[nH]c2=O)cc1NCc1ccc(Cl)s1
Sort A and B by bioavailability descending and give the first. Select an item and report its label.
B

----------
Biological target: UniProtKB P03952
Sequence (P03952 391-638 limits assumed): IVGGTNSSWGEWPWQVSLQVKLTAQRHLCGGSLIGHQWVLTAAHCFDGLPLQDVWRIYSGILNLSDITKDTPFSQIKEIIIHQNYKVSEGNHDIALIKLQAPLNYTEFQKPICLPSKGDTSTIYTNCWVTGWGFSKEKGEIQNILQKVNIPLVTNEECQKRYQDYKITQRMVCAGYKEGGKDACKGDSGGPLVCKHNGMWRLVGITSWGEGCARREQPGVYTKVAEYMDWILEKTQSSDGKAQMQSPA
Sequence (P03952 20-390 partner limits assumed): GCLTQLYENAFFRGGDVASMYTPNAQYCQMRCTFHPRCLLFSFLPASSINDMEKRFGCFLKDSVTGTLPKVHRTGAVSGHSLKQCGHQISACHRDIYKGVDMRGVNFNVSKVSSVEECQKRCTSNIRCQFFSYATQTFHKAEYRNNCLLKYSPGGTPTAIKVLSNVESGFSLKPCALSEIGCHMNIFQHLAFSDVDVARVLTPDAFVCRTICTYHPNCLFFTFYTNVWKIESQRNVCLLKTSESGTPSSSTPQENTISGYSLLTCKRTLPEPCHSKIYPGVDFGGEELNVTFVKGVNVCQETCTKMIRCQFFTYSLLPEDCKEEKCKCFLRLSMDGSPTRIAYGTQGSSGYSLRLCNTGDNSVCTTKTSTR
Assay: KLKB1 kallikrein activity inhibition assay (chromogenic substrate S-2302)
Assay type: biochemical
Conditions: Table B
pIC50: −log10 of the molar value.
Entries and their pIC50 values follow.

Consider the following illustrative entries.
SMILES_REPRESENTATION	SUBJECT_OF_TEST	pIC50
CC(C)(C)C(=O)n1nc(-c2ncccc2F)cc1NCc1ccc(Cl)s1	UniProtKB P03952	< 4.00
COc1ccc(C(=O)n2nc(-c3cccn(Cc4ccoc4)c3=O)cc2NCc2ccc(Cl)s2)c(OC)c1	UniProtKB P03952	4.00 to 5.00
CC(C)(CO)C(=O)n1nc(-c2cccn(Cc3cccnc3)c2=O)cc1NCc1ccc(Cl)s1	UniProtKB P03952	5.00 to 6.00
COc1ccccc1C(=O)n1nc(-c2ccc[nH]c2=O)cc1NCc1ccc(Cl)s1	UniProtKB P03952	5.00 to 6.00
CC(C)(C)C(=O)n1nc(-c2ccccn2)c(F)c1NCc1ccccc1	UniProtKB P03952	< 4.00
COCCn1cccc(-c2cc(NCc3ccc(Cl)s3)n(C(=O)C3(C)CCOCC3)n2)c1=O	UniProtKB P03952	5.00 to 6.00
COCC(C)(C)C(=O)n1nc(-c2cccn(Cc3ncccn3)c2=O)cc1NCc1ccc(Cl)s1	UniProtKB P03952	5.00 to 6.00
O=C(c1ccccc1Cl)n1nc(-c2cccn(Cc3ccoc3)c2=O)cc1NCc1ccc(Cl)s1	UniProtKB P03952	6.00 to 7.00

Now let's try a different one.
Give recorded pIC50 with UniProtKB P03952 for the following compound: O=C(c1ccc(N2CCOCC2)cc1)n1nc(-c2cccn(Cc3ccncc3)c2=O)cc1NCc1ccc(Cl)s1
6.00 to 7.00

Where these numbers come from: patent US9687479B2
